# experiment-notes: Mouse microsomal stability
# Assay type: in vitro ADME
# settings: mouse, microsomes, 0.5 h, 2 μM
readout-label: Mouse microsome (% metabolized in 30 min)

In [3]: df
Out[3]:
                      compound_structure  meas_value
0     c1csc(-c2nnc(Cc3cccc4ccccc34)o2)c1         99%
1  CN(Cc1nnc(-c2ccccc2)o1)Cc1c(F)cccc1Cl        100%
2      CN(Cc1nnc(-c2ccco2)o1)Cc1ccccc1Cl        100%

Request: Bench note: what Mouse microsome (% metabolized in 30 min) did c1coc(-c2nnc(SCc3cccc4ccccc34)o2)c1 show?
Response: 95%

Request: Bench note: what Mouse microsome (% metabolized in 30 min) did c1ccc(Cc2nnc(-c3cccs3)o2)cc1 show?
Response: 99%

====

# experiment-notes: physchem
# settings: pH 7.4
The reader will find reported solubility values listed item by item below.

Some solved cases for reference:
>>> print(df.to_string())
                         compound_structure  meas_value
0  FC(F)(F)c1ccc(-c2nnc(CN3CCc4ccccc4C3)o2)cc1   < 2 µg/mL
1  FC(F)(F)c1ccc(-c2nnc(CN3CCOc4ccccc43)o2)cc1   < 2 µg/mL
2      Fc1ccc(-c2nnc(CN3CCOc4ccccc43)o2)cc1   < 2 µg/mL
3        c1csc(-c2nnc(Cc3ccc4ccccc4c3)o2)c1   < 1 µg/mL
4      Fc1ccc(-c2nnc(CN3CCCc4ccccc43)o2)cc1   < 2 µg/mL

Request: Bench note: what solubility did c1coc(-c2nnc(Cc3cccc4ccccc34)o2)c1 show?
Response: < 1 µg/mL

Request: Bench note: what solubility did FC(F)(F)c1ccc(-c2nnc(CN3CCCc4ccccc43)o2)cc1 show?
Response: < 2 µg/mL
